# Test system: PNT1A normal prostate
# assay_name: sulphorhodamine B (SRB) cytotoxicity assay
# Assay type: cell-based, human
# conditions_used: SRB assay, 72 h incubation; mean ± SEM
pIC50: −log10 of the molar value.
Recorded pIC50 values for a group of compounds are listed next.
property: pIC50

• F[P-](F)(F)(F)(F)F.F[P-](F)(F)(F)(F)F.[Ru+2].c1cnc2c(c1)c1ncc3c(c1c1cccnc12)CCC3.c1cnc2c(c1)ccc1cccnc12.c1cnc2c(c1)ccc1cccnc12 [POW-12A] = < 4.00
• F[P-](F)(F)(F)(F)F.F[P-](F)(F)(F)(F)F.[Ru+2].c1cnc2c(c1)c1ncc3c(c1c1cccnc12)CCCC3.c1cnc2c(c1)ccc1cccnc12.c1cnc2c(c1)ccc1cccnc12 [VNK-572] = < 4.00
• F[P-](F)(F)(F)(F)F.F[P-](F)(F)(F)(F)F.[Ru+2].c1cnc2c(c1)c1cccnc1c1ncccc21.c1cnc2c(c1)ccc1cccnc12.c1cnc2c(c1)ccc1cccnc12 [VNK-754] = < 4.00
• N.N.[Cl][Pt][Cl] [Cisplatin, cisplatin, reference compound] = 5.42

###

# System: A280-CP70 cisplatin-resistant ovarian cancer
# assay_name: sulphorhodamine B (SRB) cytotoxicity assay
# Assay type: cell-based, human
# conditions_used: SRB assay, 72 h incubation; mean ± SEM
# Source text: […]
Recorded IC50 values for a group of compounds are listed next.
property: IC50

* F[P-](F)(F)(F)(F)F.F[P-](F)(F)(F)(F)F.[Ru+2].c1cnc2c(c1)c1ncc3c(c1c1cccnc12)CCC3.c1cnc2c(c1)ccc1cccnc12.c1cnc2c(c1)ccc1cccnc12 [POW-12A] | 35 µM
* F[P-](F)(F)(F)(F)F.F[P-](F)(F)(F)(F)F.[Ru+2].c1cnc2c(c1)c1ncc3c(c1c1cccnc12)CCCC3.c1cnc2c(c1)ccc1cccnc12.c1cnc2c(c1)ccc1cccnc12 | 15 µM
* F[P-](F)(F)(F)(F)F.F[P-](F)(F)(F)(F)F.[Ru+2].c1cnc2c(c1)c1cccnc1c1ncccc21.c1cnc2c(c1)ccc1cccnc12.c1cnc2c(c1)ccc1cccnc12 | > 100 µM
* N.N.[Cl][Pt][Cl] [Cisplatin, cisplatin, reference compound] | 4 µM

###

# Tested on: A2780 ovarian cancer
# assay_name: sulphorhodamine B (SRB) cytotoxicity assay
# Format: cell-based, human
# conditions_used: SRB assay, 72 h incubation; mean ± SEM
# Source text: […]
property: IC50 (µM)

* N.N.[Cl][Pt][Cl] [Cisplatin, cisplatin, reference compound] | 2
* F[P-](F)(F)(F)(F)F.F[P-](F)(F)(F)(F)F.[Ru+2].c1cnc2c(c1)c1ncc3c(c1c1cccnc12)CCCC3.c1cnc2c(c1)ccc1cccnc12.c1cnc2c(c1)ccc1cccnc12 | 10
* F[P-](F)(F)(F)(F)F.F[P-](F)(F)(F)(F)F.[Ru+2].c1cnc2c(c1)c1ncc3c(c1c1cccnc12)CCC3.c1cnc2c(c1)ccc1cccnc12.c1cnc2c(c1)ccc1cccnc12 [POW-12A] | 12
* F[P-](F)(F)(F)(F)F.F[P-](F)(F)(F)(F)F.[Ru+2].c1cnc2c(c1)c1cccnc1c1ncccc21.c1cnc2c(c1)ccc1cccnc12.c1cnc2c(c1)ccc1cccnc12 | 74

meta.source: paper PMC10619691
